- Test system: Plasmodium falciparum
- ASSAY DETAILS: Calibr Malaria Delayed Death Assay SOP
- Format: functional, organism-based
- Set-up: scale not given: in the data most compounds retested in dose-response had high values
- DETAILS: concentration 4.99e-06 (unit not given; other assays of the set use mol/L)
Screen size: about 38,000 compounds; about 1,200 (3.2%) showed an effect of 50% or more. The median lay at about -58%. What follows is part of a selection rich in strong results, with near analogues and random picks from the rest.
Can you tell me Percent Effect for the items I'm about to list?

Item under review: `COc1ncccc1CN1C[C@@H]2COC[C@]2(COc2ccccn2)C1.O=C(O)C(F)(F)F.O=C(O)C(F)(F)F.O=C(O)C(F)(F)F` . Reported Percent Effect?
-20.51%

Please answer likewise for `Cc1ccc(OC2(C(=O)N(C)Cc3ccoc3)CCNCC2)cc1`
63.87%

Follow-up item: `O=C(N[C@@H]1CCCNC1)C1(Oc2ccc(Cl)cc2)CCNCC1`
-19.49%

Repeat for the following compound: `CCCc1ccc(C(=O)N2CCc3c(nc(C)nc3N(C)C)C2)cc1`
-63.88%

Another compound to check: `Fc1ccc(CN2CCO[C@H]3[C@H](OCC4CCCC4)CC[C@@H]32)cc1.O=C(O)C(F)(F)F`
-74.43%

Another: CC(C)S(=O)(=O)NCC(Cc1cccc(F)c1)N1CCNC1=O (stereo not given)
-68.63%

Next record, please: CCC(=O)N1CCC2(CC1)CC(NC(=O)N(C)C)c1cc(C)ccc12 (stereo not given)
-96.24%

Next record, please: `CN(Cc1ccncn1)C(=O)C1(Oc2ccc(Cl)cc2)CCNCC1`
-76.49%

Next: `CCn1nc2c(cc1=O)CN(c1ncnc3sccc13)CC2`
2.158%

How about this compound: CC(=O)NCCNC(=O)CN1CCCC1c1c(C)nn(C)c1C (stereo not given)
-114%

###

- System: Plasmodium falciparum
- ASSAY DETAILS: Calibr Malaria Delayed Death Assay SOP
- Format: functional, organism-based
- Parameters: scale not given: in the data most compounds retested in dose-response had high values
- DETAILS: concentration 4.99e-06 (unit not given; other assays of the set use mol/L)
About 1,200 (3.2%) of roughly 38,000 compounds showed an effect of 50% or more. The median lay at about -58%. The entries come from a sample that favours strong results as a whole.
Would you mind telling me the reported Percent Effect of each entry?
# value in %; strip the unit string

Observed Percent Effect on Plasmodium falciparum for `CCN(CC)S(=O)(=O)c1ccc2c(c1)N(Cc1ccncc1)C(=O)CS2` , please.
-124.7

What do we get for Cc1nccn1CC1CCCN(C(=O)Cc2ccsc2)C1 (stereo unspecified) ?
-60.26

Quick one: `CCn1cnnc1CNC(=O)N1CCN(c2cccc(C)c2)CC1`
-132.8

Try this molecule next: `Cn1nc2c(cc1=O)CN(c1nc3ccccc3s1)CC2`
-163.5

For `O=C1CCC2(CCN(CC[C@H](O)c3ccccc3)CC2)CN1CCO` then?
-15.36

`Cc1csc(NC(=O)C2CCN(Cc3cccc4c3OCCO4)CC2)n1` ?
-33.92

What do you get for CC(C)C(=O)N1CCCC2(CCCN2Cc2cccnc2)C1 (stereo unspecified) ?
-19.91

Note, next up: `CC(=O)c1cn(CCC(=O)Nc2c3c(nn2C)CSC3)c2ccccc12`
26.69

Please give the result for `Cc1nc[nH]c1CN1CCCN(c2nc3ccccc3s2)CC1` too.
54.13

And then `CC(C)C(=O)N1CCC2(CN(CC3CCCC3)C2)C1.O=C(O)C(F)(F)F` , what is it?
-72.67

Item: `c1ccc2sc(N3CCN(c4ncnc5c4CCC5)CC3)nc2c1`
-56.68
